# Target Or Test System: T1, IL-1beta (UniProt P01584 117-269)
# T1 construct: also called IL-1β
# Experiment Notes: Biacore
Property Measured: fold difference in affinity vs parental (fold)
Numbers only, in fold.

Binder: XPA23 Fab, heavy chain I51Q (Fab, V domains shown) VH: EVQLLESGGGLVQPGGSLRLSCAASGFTFSKYFMFWVRQAPGKGLEWVSVQSPSGGMTRYADSVKGRFTISRDNSKNTLYLQMNSLRAEDTAVYYCARVGYGGNSDYWGQGTLVTVSS VL: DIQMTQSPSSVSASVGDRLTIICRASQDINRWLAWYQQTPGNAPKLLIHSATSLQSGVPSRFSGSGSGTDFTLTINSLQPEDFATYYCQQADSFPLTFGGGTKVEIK
Property Measured: fold difference in affinity vs parental
Readout Value: 0.83

Shifting focus to the binder that follows.
*Q* Consider the binder shown here: XPA23 Fab, heavy chain G56Q (Fab, V domains shown) VH: EVQLLESGGGLVQPGGSLRLSCAASGFTFSKYFMFWVRQAPGKGLEWVSVISPSGQMTRYADSVKGRFTISRDNSKNTLYLQMNSLRAEDTAVYYCARVGYGGNSDYWGQGTLVTVSS VL: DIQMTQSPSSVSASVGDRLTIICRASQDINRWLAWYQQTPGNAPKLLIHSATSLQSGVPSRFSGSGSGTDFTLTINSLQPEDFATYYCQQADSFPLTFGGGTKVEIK What is its recorded fold difference in affinity vs parental?
*A* 1.31
